Source of measurements: patent US8435978B2

- target-system: B1R receptor of the rat (Rattus norvegicus)
- Construct: host or cells: CHO K1 cells (Chinese hamster ovary), stably transfected
- measurement-notes: Functional study on the bradykinin receptor 1 (B1R), FLIPR Ca2+ assay, rB1R cells
- Type: cell-based
- experimental-context: CHO-K1, test substance 10 μM, agonist Des-Arg9-bradykinin 100 nM, % inhibition compared with the maximum achievable inhibition, read-out: B1R Antagonism, rat [10 μM] % Inhibition
endpoint: inhibition at 10 µM (%)
Report the figure in % without appending any unit label.

**Query** Requested field: inhibition at 10 µM. Item: CN(CCC1CCC(N(C)C)CC1)C(=O)COCC1CCc2ccccc2N1S(=O)(=O)c1ccc(Cl)c(Cl)c1 (centres unmarked)
**Result** 94.5

**Query** I'd like to know its inhibition at 10 µM. The compound in question is COc1cc(C)c(S(=O)(=O)N2CCCC2COCC(=O)N2CCN(c3ccc(C)c(C)c3)CC2)c(C)c1 (centres unmarked)
**Result** 103

**Query** Item `COc1cc(C)c(S(=O)(=O)N2CCC[C@H]2COCC(=O)N2CCN(CC3CCN(C)CC3)CC2)c(C)c1` has what recorded inhibition at 10 µM?
**Result** 98.5

**Query** Recorded inhibition at 10 µM of COc1cc(C)c(S(=O)(=O)N2CCCCC2COCC(=O)N2CCN(c3ccc(C(F)(F)F)cn3)CC2)c(C)c1 (centres unmarked) , please.
**Result** 99

**Query** What does the data say about its inhibition at 10 µM? Entry: O=C(COCC1CCCCN1S(=O)(=O)c1ccc(Cl)c(Cl)c1)N1CCN(CCN2CCCCC2)CC1 (centres unmarked)
**Result** 57.9

**Query** What value of inhibition at 10 µM has been reported for the following compound? O=C(COCC1CCCCN1S(=O)(=O)c1c(Cl)cccc1Cl)NCC1CCCN(Cc2ccccc2)C1 (centres unmarked)
**Result** 104

**Query** Find the recorded inhibition at 10 µM belonging to Cc1cc(C)c(S(=O)(=O)N2CCCCC2COCC(=O)NCC2CCCN(Cc3ccccc3)C2)c(C)c1 (centres unmarked) and report it.
**Result** 74.9

**Query** Name the recorded inhibition at 10 µM for O=C(COCC1CCCN1S(=O)(=O)c1ccc(Cl)c(Cl)c1)N1CCC(CCN2CCCCC2)CC1 (centres unmarked) .
**Result** 45.7

###

- target-system: B1R receptor of the rat (Rattus norvegicus, UniProt P97583)
- Construct: host or cells: CHO K1 cells (Chinese hamster ovary), stably transfected
- Sequence (P97583 whole entry): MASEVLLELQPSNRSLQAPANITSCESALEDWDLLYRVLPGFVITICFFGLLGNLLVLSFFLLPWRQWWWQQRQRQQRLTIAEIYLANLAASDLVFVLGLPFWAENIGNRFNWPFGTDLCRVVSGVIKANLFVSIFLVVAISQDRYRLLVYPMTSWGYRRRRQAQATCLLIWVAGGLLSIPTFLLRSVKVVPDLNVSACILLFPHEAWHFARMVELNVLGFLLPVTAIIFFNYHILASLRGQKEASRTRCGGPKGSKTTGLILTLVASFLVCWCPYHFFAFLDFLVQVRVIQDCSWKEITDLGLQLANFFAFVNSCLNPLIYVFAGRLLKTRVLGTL
- measurement-notes: Functional study on the bradykinin receptor 1 (B1R), FLIPR Ca2+ assay, rB1R cells
- Assay type: cell-based
- experimental-context: CHO-K1, test substance 10 μM, agonist Des-Arg9-bradykinin 100 nM, % inhibition compared with the maximum achievable inhibition, read-out: B1R Antagonism, rat [10 μM] % Inhibition
Structures can show the parent of a compound that is named as a salt.
endpoint: inhibition at 10 µM (%)
Report the figure in % without appending any unit label.

**Query** Return reported inhibition at 10 µM; argument: COc1cc(C)c(S(=O)(=O)N2Cc3ccccc3CC2COCC(=O)N2CCN(C3CCN(C)CC3)CC2)c(C)c1C (stereo not shown) [Example 562]
**Result** 100

**Query** For the molecule shown here, Cc1ccc(S(=O)(=O)N2CCCCC2COCC(=O)N2CCN(C3CCN(C)CC3)CC2)c2ccccc12 (stereo not shown) [Example 155, dihydrochloride] , give the reported inhibition at 10 µM.
**Result** 89.6

**Query** Consider the molecule shown here: COc1cc(C)c(S(=O)(=O)N2CCCCC2COCC(=O)Nc2ccc(CN3CCC(C)CC3)cc2)c(C)c1 (stereo not shown) [Example 421] What is its recorded inhibition at 10 µM?
**Result** 93.4

**Query** Query: inhibition at 10 µM; subject: CN1CCC(N2CCN(C(=O)COC[C@@H]3Cc4ccccc4CN3S(=O)(=O)c3ccc(Cl)cc3Cl)CC2)CC1 [Example 133]
**Result** 98.1

**Query** Data request, read-out inhibition at 10 µM, for O=C(COCC1CCCCN1S(=O)(=O)c1ccc(Br)cc1)N1CCN(c2ccncc2)CC1 (stereo not shown) [Example 126]
**Result** 81.1

**Query** Name the recorded inhibition at 10 µM for COc1cc(C)c(S(=O)(=O)N2CCCCC2COCC(=O)N2CCC(Cc3cccnc3)C2)c(C)c1 (stereo not shown) [Example 208] .
**Result** 101

**Query** Find the recorded inhibition at 10 µM belonging to COc1cc(C)c(S(=O)(=O)N2CCCCC2COCC(=O)NC2CCN(Cc3ccccc3)C2)c(C)c1 (stereo not shown) [Example 365] and report it.
**Result** 99.8
